# Test system: Coptotermes formosanus
# assay.explanation: Termiticidal activity against Coptotermes formosanus (third-instar worker and soldier) assessed as mortality at 1% wt/wt at 26.6 degC, 100% RH measured after 4 days (Rvb= 0%)
# Assay type: functional
Grouping by measured mortality is done with the following cut points: A: < 20%; B: ≥ 20% and < 90%; C: ≥ 90%

compound	classification
CC1(C)C=Cc2cc(CO)ccc2O1 [EULATACHROMENE]	B
COC(=O)Cc1ccc2c(c1)C=CC(C)(C)O2	B
CC(C)CC(=O)N(C)CCC1=CC2C=CC(C)(C)OC2C=C1 (centres undefined)	B
CC1(C)C=Cc2cc(CCO)ccc2O1	A
CNCCc1ccc2c(c1)C=CC(C)(C)O2.Cl	A
CC1(C)C=Cc2cc(C=O)ccc2O1	B
CC1(C)C=Cc2c(CO)cccc2O1	C
COC(=O)c1ccc2c(c1)OC(C)(C)C=C2	C
CC(C)NCCc1ccc2c(c1)C=CC(C)(C)O2.Cl	A
CC1(C)C=Cc2ccc(CO)cc2O1	C
CC1(C)C=Cc2cc(C(=O)O)ccc2O1	A

----------
This section presents compounds with their documented mortality values.
# Test system: Coptotermes formosanus
# assay.explanation: Termiticidal activity against Coptotermes formosanus (third-instar worker and soldier) assessed as mortality at 1% wt/wt at 26.6 degC, 100% RH measured after 21 days (Rvb= 1.3 +/- 2.5%)
# Assay type: functional
property.name: mortality (%)

compound	reported.result
CC1(C)C=Cc2ccc(CO)cc2O1	100
CC(C)NCc1ccc2c(c1)C=CC(C)(C)O2.Cl	88.8
COC(=O)c1cccc2c1C=CC(C)(C)O2	100
CC1(C)C=Cc2cc(C(=O)O)ccc2O1	2.5
COC(=O)Cc1ccc2c(c1)C=CC(C)(C)O2	100
CC(C)NCCc1ccc2c(c1)C=CC(C)(C)O2.Cl	15
CNCCc1ccc2c(c1)C=CC(C)(C)O2.Cl	3.8
CC1(C)C=Cc2cc(CO)ccc2O1	100
CC1(C)C=Cc2cc(CCO)ccc2O1	73.8
COC(=O)c1ccc2c(c1)OC(C)(C)C=C2	100
CC(C)CC(=O)N(C)CCC1=CC2C=CC(C)(C)OC2C=C1 (centres undefined)	32.5
COC(=O)c1ccc2c(c1)C=CC(C)(C)O2	100
CC1(C)C=Cc2c(CO)cccc2O1	100
CC1(C)C=Cc2cc(C=O)ccc2O1	98.8

----------
# Test system: Coptotermes formosanus
# assay.explanation: Termiticidal activity against Coptotermes formosanus (third-instar worker and soldier) assessed as mortality at 1% wt/wt at 26.6 degC, 100% RH measured after 8 days (Rvb= 1.3 +/- 2.5%)
# Assay type: functional
This section presents compounds with their documented mortality values.

compound	mortality [%]
CNCCc1ccc2c(c1)C=CC(C)(C)O2.Cl	0
CC1(C)C=Cc2ccc(CO)cc2O1	100
COC(=O)c1ccc2c(c1)OC(C)(C)C=C2	100
CC(C)NCc1ccc2c(c1)C=CC(C)(C)O2.Cl	55
CC1(C)C=Cc2cc(C=O)ccc2O1	81.3
CC1(C)C=Cc2c(CO)cccc2O1	100
COC(=O)c1ccc2c(c1)C=CC(C)(C)O2	100
COC(=O)Cc1ccc2c(c1)C=CC(C)(C)O2	92.5
CC(C)NCCc1ccc2c(c1)C=CC(C)(C)O2.Cl	3.8
CC(C)CC(=O)N(C)CCC1=CC2C=CC(C)(C)OC2C=C1 (centres undefined)	32.5
CC1(C)C=Cc2cc(CO)ccc2O1	92.5
CC1(C)C=Cc2cc(C(=O)O)ccc2O1	0
COC(=O)c1cccc2c1C=CC(C)(C)O2	97.5
CC1(C)C=Cc2cc(CCO)ccc2O1	33.8

----------
This section presents molecules with their documented mortality values.
# Test system: Coptotermes formosanus
# assay.explanation: Termiticidal activity against Coptotermes formosanus (third-instar worker and soldier) assessed as mortality at 1% wt/wt at 26.6 degC, 100% RH measured after 18 days (Rvb= 1.3 +/- 2.5%)
# Format: functional

molecule.smiles	mortality
COC(=O)c1cccc2c1C=CC(C)(C)O2	100%
CC(C)NCc1ccc2c(c1)C=CC(C)(C)O2.Cl	88.8%
CC(C)NCCc1ccc2c(c1)C=CC(C)(C)O2.Cl	8.8%
COC(=O)c1ccc2c(c1)C=CC(C)(C)O2	100%
CC1(C)C=Cc2ccc(CO)cc2O1	100%
CC1(C)C=Cc2cc(C(=O)O)ccc2O1	1.3%
COC(=O)c1ccc2c(c1)OC(C)(C)C=C2	100%

----------
# Tested on: Coptotermes formosanus
# assay.explanation: Termiticidal activity against Coptotermes formosanus (third-instar worker and soldier) assessed as mortality at 1% wt/wt at 26.6 degC, 100% RH measured after 18 days (Rvb= 1.3 +/- 2.5%)
# Assay type: functional

compound	target.under.test	mortality
CC1(C)C=Cc2cc(C=O)ccc2O1	Coptotermes formosanus	98.8%
CC1(C)C=Cc2cc(CCO)ccc2O1	Coptotermes formosanus	71.3%
CNCCc1ccc2c(c1)C=CC(C)(C)O2.Cl	Coptotermes formosanus	2.5%
CC(C)CC(=O)N(C)CCC1=CC2C=CC(C)(C)OC2C=C1 (configuration not stated)	Coptotermes formosanus	32.5%
COC(=O)Cc1ccc2c(c1)C=CC(C)(C)O2	Coptotermes formosanus	100%
CC1(C)C=Cc2cc(CO)ccc2O1	Coptotermes formosanus	100%
CC1(C)C=Cc2c(CO)cccc2O1	Coptotermes formosanus	100%

----------
# Tested on: Coptotermes formosanus
# assay.explanation: Termiticidal activity against Coptotermes formosanus (third-instar worker and soldier) assessed as mortality at 1% wt/wt at 26.6 degC, 100% RH measured after 4 days (Rvb= 0%)
# Type: functional
This section presents compounds with their documented mortality values.

molecule.smiles	target.under.test	unit.annotation	mortality
CC(C)NCc1ccc2c(c1)C=CC(C)(C)O2.Cl	Coptotermes formosanus	%	20
COC(=O)c1ccc2c(c1)C=CC(C)(C)O2	Coptotermes formosanus	%	92.5
COC(=O)c1cccc2c1C=CC(C)(C)O2	Coptotermes formosanus	%	87.5

// data source = ChEMBL document CHEMBL3045559
